system.name: Cytochrome P450 2C9 (Homo sapiens) (UniProt P11712)
Sequence (P11712 whole entry, looked up): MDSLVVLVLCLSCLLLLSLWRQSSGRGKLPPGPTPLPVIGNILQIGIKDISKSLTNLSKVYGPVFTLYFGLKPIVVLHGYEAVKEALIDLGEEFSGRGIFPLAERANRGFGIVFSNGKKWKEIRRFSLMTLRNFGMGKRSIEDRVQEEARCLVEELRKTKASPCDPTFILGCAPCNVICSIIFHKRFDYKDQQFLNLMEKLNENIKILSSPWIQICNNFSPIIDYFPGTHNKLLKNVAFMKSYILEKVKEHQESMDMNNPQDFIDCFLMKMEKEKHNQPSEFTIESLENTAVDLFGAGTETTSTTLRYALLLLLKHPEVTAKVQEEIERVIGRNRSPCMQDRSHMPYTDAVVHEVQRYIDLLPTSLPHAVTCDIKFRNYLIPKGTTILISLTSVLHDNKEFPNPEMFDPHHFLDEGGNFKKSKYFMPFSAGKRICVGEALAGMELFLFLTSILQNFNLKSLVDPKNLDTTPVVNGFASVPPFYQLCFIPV
test.details: Cytochrome panel assay with activity outcomes
condition.label: recombinant CYP, pro-luciferin dealkylation, luminescence, p450-cyp2c9; series mostly up to 57.1 µM
In all, about 16,000 compounds went through this assay and about 4,000 (25%) were called active. About 26% were inconclusive and are not listed. Not all results are given here.
measurement.kind: AC50

| smiles.record | AC50 |
| --- | --- |
| N[C@@H](CO)C(=O)NNCc1ccc(O)c(O)c1O | inactive |
| O=C(O)c1ccccc1-c1ccccc1C(=O)Nc1ccc2c(c1)Cc1cc(F)ccc1-2 | 2.51 µM (active) |
| CC(=O)c1cnc2c(C(=O)O)cnn2c1C | inactive |
| CCN1CCN(c2nn3c(=O)c4ccccc4nc3c3ccccc23)CC1 | inactive |

Provide AC50 for all items below, preserving their order.
1. Cc1cc(N)c2ccccc2[n+]1CCCCCCCCCC[n+]1c(C)cc(N)c2ccccc21
2. CCn1c(/C=C2/C(=O)N(C)c3ccccc32)nc2ccccc2c1=O
3. CCCCCCCCCCCCC/C=C\[C@@H](O)[C@H](CO)NC(C)=O
4. COC(=O)[C@@]1(Cc2ccccc2)[C@H]2c3cc(C(=O)N(C)C)n(Cc4c(CO)[nH]cc(C)c4=O)c3C[C@H]2CN1C(=O)c1ccccc1
5. Cc1onc(-c2c(Cl)cccc2Cl)c1C(=O)Nc1ccc2c(c1)OCO2
6. CCCCCCCCCCCCCCCC(=O)NC(C)C

**A:**
inactive
10 µM (active)
3.16 µM (active)
0.631 µM (active)
1.41 µM (active)
inactive

* * *

system.name: Cytochrome P450 2C9 (Homo sapiens)
test.details: Cytochrome panel assay with activity outcomes
condition.label: recombinant CYP, pro-luciferin dealkylation, luminescence, p450-cyp2c9; series mostly up to 57.1 µM
The whole screen tested about 16,000 compounds, of which about 4,000 (25%) were called active. Another 26% or so got no clear call; they are omitted. Calls follow the shape of the dose curve; as a rule, active = well fitted curve in the direction sought with a large enough effect; inconclusive = small, poorly fitted or top-dose-only effect, or effect the other way; inactive = no such curve, though single readings can be large or run the other way. These entries were drawn from the full list.
# output must be one of active, inactive

Worked set:
| compound | category.label |
| --- | --- |
| COc1cc(OC)c(C2C(C(=O)O)c3ccccc3C(=O)N2C)cc1OC (stereo not given) | inactive |
| Cc1ccc(C(=O)ON=C2CCN(S(=O)(=O)c3ccccc3)CC2)cc1 | inactive |
| CCc1ccc(C(CC(=O)c2ccc(Cl)cc2)C(=O)O)cc1 (stereo not given) | active |

**Q:** What did this assay record as the result for COc1cccc(Nc2ncc3nc(CCc4ccccc4)c(=O)n(C4CC4)c3n2)c1 ?
**A:** inactive

**Q:** What did this assay record as the result for Cc1cc(NC(=O)COC(=O)c2ccc(S(=O)(=O)N3CCCc4ccccc43)cc2)no1 ?
**A:** active

**Q:** What did this assay record as the result for Cc1cc(N(CN2CCCC2=O)C(=O)c2ccc(F)cc2)no1 ?
**A:** inactive

**Q:** What did this assay record as the result for COc1ccc(-n2c(=O)c(C)nc3cnc(Oc4ccccc4)nc32)cc1 ?
**A:** inactive

**Q:** What did this assay record as the result for CCOC(=O)c1[nH]c2ccc(OC)cc2c1NC(=O)c1ccc2c(c1)OCO2 ?
**A:** active

**Q:** What did this assay record as the result for CCOC(=O)c1[nH]c2cc(OC)c(OC)cc2c1NC(=O)c1nonc1C ?
**A:** active

**Q:** What did this assay record as the result for O=C(NCc1ccccc1)c1ccc(S(=O)(=O)N2CCCc3ccccc32)cc1 ?
**A:** active
